Hi there, I'd appreciate the recorded polymerase ribozyme fitness (log ratio) for every entry that follows.
B1: TPR 5TU (parent)
chain: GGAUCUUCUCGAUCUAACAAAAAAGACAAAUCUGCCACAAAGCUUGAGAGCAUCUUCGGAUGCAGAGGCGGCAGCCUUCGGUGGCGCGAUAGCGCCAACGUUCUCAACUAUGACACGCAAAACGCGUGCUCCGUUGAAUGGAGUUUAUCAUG

variants of: B1; assay: polymerase ribozyme fitness, log enrichment relative to wild type (log ratio); higher = more active; in vitro selection for triplet polymerase activity
Variants at the floor of the assay were thinned out.
Form field (numeric): enter value without unit.

Value lookup for polymerase ribozyme fitness (log ratio); key = G81C G141C
-0.0339

What value of polymerase ribozyme fitness (log ratio) has been recorded for this entry: A52G C76U C85G C123A U144G
-0.879

# query: polymerase ribozyme fitness (log ratio) of entry G48A U135A
-0.864

# get_value(readout='polymerase ribozyme fitness (log ratio)', item= G117U U145G )
-3.12

Consider the variant shown here: A40C G48C U56G What is its recorded polymerase ribozyme fitness (log ratio)?
-1.94

Which polymerase ribozyme fitness (log ratio) is listed for G83C G117U ?
-1.62

Need polymerase ribozyme fitness (log ratio) of G48U G84U , thanks.
-2.01

Name the reported polymerase ribozyme fitness (log ratio) value associated with the variant U53A A98G U101G
-1.25

Look at this variant and give its reported polymerase ribozyme fitness (log ratio). G92C U134G
-1.68

Report polymerase ribozyme fitness (log ratio) for U56A G58A G88C please.
-3.84

So what's the measured polymerase ribozyme fitness (log ratio) for this one? C54U U56C
-0.57
